- TARGET_ENTITY: T1, his-tagged hTfR1 (Acro Biosystems p/n CD1-H5243) (human, UniProt P02786 89-760)
- T1 construct: Bought reagent of the SPR assay
- TEST_DESCRIPTION: SPR, Biacore X100, His-tagged TfR1 captured by anti-His
Recorded measurements of koff, one per entry
// return numeric value only (unit: s⁻¹, not printed)

>  <BINDER>
Fab0065 (Fab, V domains shown) VH: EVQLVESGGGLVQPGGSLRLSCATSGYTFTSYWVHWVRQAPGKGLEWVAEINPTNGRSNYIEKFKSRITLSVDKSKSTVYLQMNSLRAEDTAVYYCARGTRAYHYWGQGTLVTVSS VL: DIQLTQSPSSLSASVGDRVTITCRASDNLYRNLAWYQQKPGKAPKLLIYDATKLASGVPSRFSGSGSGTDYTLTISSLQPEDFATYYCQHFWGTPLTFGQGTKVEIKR

>  <VAL>
0.00071

$$$$
>  <BINDER>
Fab0064 (Fab, V domains shown) VH: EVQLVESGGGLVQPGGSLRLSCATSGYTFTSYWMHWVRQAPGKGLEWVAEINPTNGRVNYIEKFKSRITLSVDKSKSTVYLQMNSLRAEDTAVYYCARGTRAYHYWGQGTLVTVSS VL: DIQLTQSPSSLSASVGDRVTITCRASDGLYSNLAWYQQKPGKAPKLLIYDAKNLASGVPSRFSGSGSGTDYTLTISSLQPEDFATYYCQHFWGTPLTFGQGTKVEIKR

>  <VAL>
0.00111

$$$$

In the following, a different binder is considered.
Prompt: Hello, please tell me recorded koff for this one: Fab0073 (Fab, V domains shown) VH: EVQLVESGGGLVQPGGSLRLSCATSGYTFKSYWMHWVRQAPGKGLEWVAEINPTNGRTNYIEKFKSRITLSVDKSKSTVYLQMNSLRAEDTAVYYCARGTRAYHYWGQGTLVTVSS VL: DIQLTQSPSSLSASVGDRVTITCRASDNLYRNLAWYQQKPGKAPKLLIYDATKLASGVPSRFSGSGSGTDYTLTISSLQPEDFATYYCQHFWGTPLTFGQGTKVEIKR
Completion: 0.00065
